- Test system: NCI-H838
- TEST DESCRIPTION: relative viability (nuclei count vs DMSO), 5 days (fraction); higher = more cells survive
- CONDITION NOTES: first compound 0.000632 µM
Attribute: relative viability
Just the number, please, no unit after it.

compound="CC(=O)O[C@@]12CO[C@@H]1C[C@H](O)[C@@]1(C)C(=O)[C@H](O)C3=C(C)[C@@H](OC(=O)[C@H](O)[C@@H](NC(=O)OC(C)(C)C)c4ccccc4)C[C@@](O)([C@@H](OC(=O)c4ccccc4)[C@H]21)C3(C)C [Docetaxel] + C[C@]1(O)C[C@@H](c2nc(-c3ccc4ccc(-c5ccccc5)nc4c3)c3c(N)nccn32)C1 [Linsitinib] (partner 1 µM)" system_under_test=NCI-H838 measured_quantity="relative viability" test_result=1.1

Lab book: relative viability of CC(=O)O[C@@]12CO[C@@H]1C[C@H](O)[C@@]1(C)C(=O)[C@H](O)C3=C(C)[C@@H](OC(=O)[C@H](O)[C@@H](NC(=O)OC(C)(C)C)c4ccccc4)C[C@@](O)([C@@H](OC(=O)c4ccccc4)[C@H]21)C3(C)C [Docetaxel] + CC(C)C[C@H](NC(=O)[C@H](Cc1ccccc1)NC(=O)c1cnccn1)B(O)O [Bortezomib] (partner 0.002 µM) noted as 0.522

The compound listed as CC(=O)O[C@@]12CO[C@@H]1C[C@H](O)[C@@]1(C)C(=O)[C@H](O)C3=C(C)[C@@H](OC(=O)[C@H](O)[C@@H](NC(=O)OC(C)(C)C)c4ccccc4)C[C@@](O)([C@@H](OC(=O)c4ccccc4)[C@H]21)C3(C)C [Docetaxel] + Cc1nc(NC(=O)N2CCC[C@H]2C(N)=O)sc1-c1ccnc(C(C)(C)C(F)(F)F)c1 [Alpelisib] (partner 2 µM) shows relative viability equal to 0.974

These measurements were taken from the supplement of paper PMC10307832.
